- Tested on: TK-10
- assay_summary: NCI tumour cell line growth inhibition, 48 h
The source made the active and inactive calls. Rule as the data show it: active = GI50 up to about 1.1 µM and inactive = higher.
Choose one outcome from this list and give only that: T = active, F = inactive

// return assay outcome for CC(=O)Nc1ccc(S(=O)(=O)N/N=C/c2cc(I)cc([N+](=O)[O-])c2O)cc1
F

Answer briefly: the call reported for Clc1cc(N/N=C(\c2ccccc2)c2ccccn2)ncn1 in this assay.
T

Query: recorded result category for CC1(C)OCC2OC(n3cnc4c(N)nc(Cl)nc43)C(OS(C)(=O)=O)C2O1 (stereo unspecified) in this test
F

Write down the call the test reported for this molecule. Item: CC(C)C1(Cl)CCC2C3(C)CCCC(C)(C(=O)O)C3CC(Cl)C2(Cl)C1Cl (stereo unspecified)
F

For OC[C@H]1O[C@@H](Oc2cc(O)cc(/C=C/c3ccc(O)cc3)c2)[C@H](O)[C@@H](O)[C@@H]1O , what call appears in the results of this test?
F

Which outcome was assigned to O=C1C(Br)=C(c2ccccc2)C(c2ccccc2)=C1c1ccccc1 in this test?
F

Test call for this molecule, please: CC(=O)NC1C(OCc2ccccc2)OC(CO)C(O)C1OC(C)C(=O)NC(C)C(=O)NC(CCC(=O)NCCCCNc1c2ccccc2nc2cccc([N+](=O)[O-])c12)C(N)=O (stereo unspecified)
T

Called result for Cc1ccccc1/N=N/c1c(O)ccc2ccccc12
F

State the result this test recorded for CC1CCCC2(CC[N+](C)(CCC[N+](C)(C)C)CC2)C1 (stereo unspecified) .
F

Which result was noted for this molecule in the test: O=c1[nH]c(=O)n(C2OC(CO)C(N(O)Cc3ccc(F)cc3)C2O)cc1Br (stereo unspecified)
F

# fetch the recorded call for c1cc2c3ccsc3c3sccc3c2s1 here
F

Write down the call the test reported for this molecule. Item: Nc1nncc2[nH]nnc12
F

What was the test verdict on CC(=O)OC1CCn2nnc(CO)c21 (stereo unspecified) ?
F

Status in this test for CN1NC(c2ccccc2)=C(C#N)C(=O)CC1c1ccccc1Cl (stereo unspecified) ?
F

Short answer needed: outcome of this test for O=S(=O)(O)c1ccc(/N=N/c2ccc(/N=N/c3c(O)ccc4ccc(S(=O)(=O)O)cc34)cc2)cc1 ?
F

Hi, do you know how CC1(C)C2CC(=O)C1(C)C(OCc1ccccc1)C2Br (stereo unspecified) came out in this test?
F

Returns: the outcome recorded for CCN1CN(c2ccccc2)C2(CCN(CCCSc3ccc(F)cc3)CC2)C1=O in this assay.
F

Query: recorded result category for Nc1nc(S)nc(C(=O)Nc2nccs2)c1-c1ccccc1 in this test
F

// return assay outcome for COc1cc(OC)cc(Oc2nc3cc(F)c(F)cc3nc2-c2ccccc2)c1
F

What classification did CC(C)=NN/C(=N\c1ccc(Cl)cc1)NS(=O)(=O)c1ccc(C)cc1 end up with in this test?
F

Hey, what did the test say about C=CCn1c2ccccc2[n+]2cc([N+](=O)[O-])ccc12 ?
F
